All figures here come from patent US9980943B2.

tested on: α7 integrin (LacZ reporter in α7βgal+/− myoblasts); experiment: Myoblast α7+/LacZ integrin FDG assay (Burkin assay in myoblasts, 96-well); assay type: cell-based, mouse; conditions: 1 uM; SU9516 analogs, 96-well, N=3-6
experimentalReadout: Burkin Assay in Myoblasts, value relative to DMSO
Could you respond with only the numeric value?

compound	measured
O=C1Nc2ccccc2/C1=C\c1cccn1-c1ccc(OC(F)(F)F)cc1 [MLS000546982-01]	1.155

Record CCN(CC)CCNC(=O)c1c(C)[nH]c(/C=C2\C(=O)Nc3ccc(F)cc32)c1C [NCGC00164631-03] , field Burkin Assay in Myoblasts, value relative to DMSO: 1.032

Record Cc1cc(C)c(/C=C2\C(=O)Nc3ccccc32)[nH]1 [NCGC00094381-03] , field Burkin Assay in Myoblasts, value relative to DMSO: 0.9952

Record O=C1C(c2c(O)[nH]c3ccccc23)=Nc2ccccc21 [NCGC00179302-02] , field Burkin Assay in Myoblasts, value relative to DMSO: 1.0859

Record O=C1Nc2ccccc2/C1=C/c1cccnc1 [MLS000682748-01] , field Burkin Assay in Myoblasts, value relative to DMSO: 1.162

Record CCn1c(O)c(C(C#N)=C2N=c3ccccc3=N2)c2ccccc21 [MLS000564846-01] , field Burkin Assay in Myoblasts, value relative to DMSO: 0.8438

Record O=C1Nc2ccccc2/C1=C/c1ccc([N+](=O)[O-])cc1 [MLS001194544-01] , field Burkin Assay in Myoblasts, value relative to DMSO: 0.9906

---

tested on: β-galactosidase in CMV-LacZ C2C12 myotubes; experiment: CMV-LacZ secondary screen in C2C12 myotubes (β-Gal stabilizing assay); assay type: cell-based, mouse; conditions: 40 uM; C2C12 CMV-LacZ myotubes; fold relative to DMSO
Kindly return rule met if reported CMV-LACZ in Myotubes, signal relative to DMSO is no lower than 1; return rule not met if it is lower.

compound	targetOrSystem	classification
CCOc1ccccc1Nc1cc2n(c(=O)n1)CCc1cc(OC)c(OC)cc1-2	β-galactosidase in CMV-LacZ C2C12 myotubes	rule met
CCOc1ccc2nc(Cl)sc2c1	β-galactosidase in CMV-LacZ C2C12 myotubes	rule met
COc1ccccc1-c1coc2c(CN3C(C)CCCC3C)c(O)ccc2c1=O (centres unmarked)	β-galactosidase in CMV-LacZ C2C12 myotubes	rule met

Consider now this further compound.
Can CCN(C(=O)c1ccc(S(=O)(=O)N(C)C)cc1)C(C)C(=O)Nc1ccc(C)cc1 (centres unmarked) be said to have CMV-LACZ in Myotubes, signal relative to DMSO at or above 1?
rule not met

---

Burkin Assay in Myoblasts, signal relative to DMSO for assorted compounds
test system: α7 integrin (LacZ reporter in α7βgal+/− myoblasts); test: Myoblast α7+/LacZ integrin FDG assay (Burkin assay in myoblasts, 96-well); format: cell-based, mouse; conditions: 20 uM; α7+/LacZ myoblasts, 96-well
Could you respond with only the numeric value?

Record `CCOc1ccc(NC(=O)CN2C(=O)S/C(=C/c3cccn3C)C2=O)cc1` , field Burkin Assay in Myoblasts, signal relative to DMSO: 0.6925

Record `COc1ccc(N=Nc2ccc(N)nc2N)cc1` , field Burkin Assay in Myoblasts, signal relative to DMSO: 1.0406

Record `CCc1ccc(S(=O)(=O)NCCOc2cccc3cccnc23)cc1` , field Burkin Assay in Myoblasts, signal relative to DMSO: 0.8996

Record O=C(Nc1ccccc1Cl)C1CCCN1C(=O)OCc1ccccc1 (stereo not drawn) , field Burkin Assay in Myoblasts, signal relative to DMSO: 1.001

---

Burkin Assay in Myotubes, α7 integrin LacZ reporter signal relative to DMSO for assorted compounds
system: α7 integrin (LacZ reporter in α7+/LacZ myotubes); test: Myotube α7 integrin FDG assay (Burkin assay in myotubes, 96-well); format: cell-based, mouse; conditions: myotubes, 40 uM
Could you respond with only the numeric value?

compound	targetOrSystem	measured
CCOc1ccccc1Nc1cc2n(c(=O)n1)CCc1cc(OC)c(OC)cc1-2 [MLS001215294-01]	α7 integrin (LacZ reporter in α7+/LacZ myotubes)	0.8079
COCCSc1ccccc1C(=O)Nc1cc(C)cc(C)c1 [MLS000675441-01]	α7 integrin (LacZ reporter in α7+/LacZ myotubes)	0.7168
Cn1cc(CN2CCC(C(=O)Nc3cccc(-c4cscn4)c3)CC2)cn1 [MLS001105912-01]	α7 integrin (LacZ reporter in α7+/LacZ myotubes)	1.003

Record Cc1cc(C)nc(NC(=O)c2ccc(Cl)cc2Cl)n1 [MLS000706349-01] , field Burkin Assay in Myotubes, α7 integrin LacZ reporter signal relative to DMSO: 0.9239

Record Cc1[nH]c2ccc(F)cc2c1CCN(Cc1ccco1)C(=S)NC(C)(C)C [MLS000419286-01] , field Burkin Assay in Myotubes, α7 integrin LacZ reporter signal relative to DMSO: 0.193

---

test system: α7 integrin (LacZ reporter in α7+/LacZ myotubes); test: Myotube α7 integrin FDG assay (Burkin assay in myotubes, 96-well); type: cell-based, mouse; conditions: myotubes, 5 uM
experimentalReadout: Burkin Assay in Myotubes, α7 integrin LacZ reporter signal relative to DMSO

Worked set:
O=C1CCc2cc(S(=O)(=O)Nc3ccc(C(F)(F)F)cc3)cc3c2N1CC3 1.035
CC(C)CN(C(=O)c1cccc(Cl)c1)c1c(N)n(Cc2ccccc2)c(=O)[nH]c1=O 0.9778
Cc1cccn2c(=O)c3cc(C(=O)NC4CCCCC4)n(C)c3nc12 0.8315

Here's the next entry for you.
Record `CCOc1ccccc1NC(=O)COC(=O)CNS(=O)(=O)c1ccc(C)cc1` , field Burkin Assay in Myotubes, α7 integrin LacZ reporter signal relative to DMSO: 0.9065

---

test system: β-galactosidase in CMV-LacZ C2C12 myoblasts; assay: CMV-LacZ secondary screen in C2C12 myoblasts (β-Gal stabilizing assay); format: cell-based, mouse; details: 0.5 uM; CMV-LacZ C2C12 myoblasts
Threshold check on CMV-LACZ in Myoblasts (β-galactosidase activity relative to DMSO): strictly below 1 is T; on or above 1 is F.

molecule	classification
COc1ccc(C(=O)Nc2ccc(Cl)cn2)cc1Cl [MLS000089748-01]	F
CC(=O)Nc1ccc(NC(=O)c2cc(=O)c3cc(C)cc(C)c3o2)cc1 [MLS001200396-01]	F
COc1ccccc1C(=O)Nc1ccnn1C1CCN(C(=O)c2ccoc2)CC1 [MLS001083082-01]	T
Cc1ccccc1-n1c(Cc2cccs2)n[nH]c1=S [MLS000568234-01]	T
O=c1c2cc(-c3ccccc3)sc2nc2n1N=C(c1ccccc1)CS2 [MLS000858981-01]	T
CN(CCC1CCCCO1)C(=O)CCc1nnc(CCCCc2ccccc2)o1 (stereo not drawn) [MLS000735021-01]	T

Hi there! Is CMV-LACZ in Myoblasts (β-galactosidase activity relative to DMSO) for Cc1ccc(Cn2nnc3c(=O)[nH]c(C4CCCN(C(=O)c5ccco5)C4)nc32)cc1 (stereo not drawn) [MLS001217212-01] below 1, do you know?
F

---

test system: β-galactosidase in CMV-LacZ C2C12 myotubes; experiment: CMV-LacZ secondary screen in C2C12 myotubes (β-Gal stabilizing assay); type: cell-based, mouse; details: 10 uM; SU9516 analogs, C2C12 CMV-LacZ, N=2
Kindly return Met if reported CMV-LACZ in Myotubes, value relative to DMSO is no lower than 1; return Not met if it is lower.

Recorded results for 10 compounds are shown here.
compound	classification
O=C1C(c2c(O)[nH]c3ccccc23)=Nc2ccccc21	Not met
CCN(CC)CCNC(=O)c1c(C)[nH]c(/C=C2\C(=O)Nc3ccc(F)cc32)c1C [NCGC00164631-04]	Not met
Cc1[nH]c(/C=C2\C(=O)Nc3ccc(S(=O)(=O)Cc4c(Cl)cccc4Cl)cc32)c(C)c1C(=O)C1CCCN1CN1CCCC1 (stereo not drawn)	Met
COc1ccc2c(c1)C(=C(C#N)C#N)C(=O)N2CCc1ccccc1	Not met
Cc1ncc(/C=C2\C(=O)Nc3ccccc32)[nH]1	Met
Cc1ccc2c(c1)/C(=C/c1ccccc1)C(=O)N2	Met
Cc1ccccc1/C=C1\C(=O)Nc2ccc(F)cc21	Met
O=C1Nc2ccccc2/C1=C\c1cccn1-c1ccc(OC(F)(F)F)cc1	Met
CC(C)Oc1ccc(C(=O)/C=C2/C(=O)Nc3ccccc32)cc1	Met
Cc1cc(C)c(/C=C2\C(=O)Nc3ccccc32)[nH]1 [NCGC00094381-05]	Met

Can `C=CCOc1ccc(C(=O)/C=C2/C(=O)Nc3ccccc32)cc1` be said to have CMV-LACZ in Myotubes, value relative to DMSO at or above 1?
Met

Can `NC(=O)COc1ccc(C(=O)/C=C2/C(=O)Nc3ccccc32)cc1` be said to have CMV-LACZ in Myotubes, value relative to DMSO at or above 1?
Met

Can `CN1CCN(c2ccccc2/C=C2/C(=O)Nc3ccccc32)CC1` be said to have CMV-LACZ in Myotubes, value relative to DMSO at or above 1?
Met
